Test system: pneumococcal strains
Protocol details: Microbroth dilution MICs of strains tested by time-kill and PAE
Assay type: cell-based
Settings: Streptococcus pneumoniae, strain 3 (S) penicillin susceptible, quinolone-resistant; read-out: Microdilution MIC
Entries and their MIC values follow.
A number alone suffices; assume µg/mL.

Entry "CC1(C)S[C@@H]2[C@H](NC(=O)[C@H](N)c3ccc(O)cc3)C(=O)N2[C@H]1C(=O)O" needs its MIC filled in; supply it.
0.008

Using the record for "CO/N=C(\C(=O)N[C@@H]1C(=O)N2C(C(=O)O)=C(COC(N)=O)CS[C@H]12)c1ccco1" , state its measured MIC.
0.016

Give the value of MIC reported for the following: CO/N=C1\CN(c2nc3c(cc2F)c(=O)c(C(=O)O)cn3C2CC2)CC1CN (racemic)
0.5

Return value of MIC for input "C[C@@H]1CN(c2c(F)c(N)c3c(=O)c(C(=O)O)cn(C4CC4)c3c2F)C[C@H](C)N1" , no commentary.
32

Recall and state the measured MIC for "C[C@H]1COc2c(N3CCN(C)CC3)c(F)cc3c(=O)c(C(=O)O)cn1c23" .
32

* * *

Test system: quinolone susceptible pneumococci (ciprofloxacin MICs ≦4.0 μg/ml)
Protocol details: Agar dilution MICs of 207 quinolone susceptible pneumococcal strains
Format: cell-based, Streptococcus pneumoniae
Settings: Streptococcus pneumoniae, agar dilution; Penicillin R strains; read-out: MIC range
Item-by-item account of MIC

Field: example entries. Status: answers known.
CO/N=C(\C(=O)N[C@@H]1C(=O)N2C(C(=O)O)=C(COC(N)=O)CS[C@H]12)c1ccco1 :: 0.5 to 32 µg/mL
CC1(C)S[C@@H]2[C@H](NC(=O)[C@H](N)c3ccc(O)cc3)C(=O)N2[C@H]1C(=O)O :: 0.5 to 8 µg/mL
C[C@@H]1CN(c2c(F)c(N)c3c(=O)c(C(=O)O)cn(C4CC4)c3c2F)C[C@H](C)N1 :: 0.06 to 1 µg/mL
C[C@H]1COc2c(N3CCN(C)CC3)c(F)cc3c(=O)c(C(=O)O)cn1c23 :: 1 to 2 µg/mL
N[C@@H]1[C@H]2CN(c3nc4c(cc3F)c(=O)c(C(=O)O)cn4-c3ccc(F)cc3F)C[C@@H]12 :: 0.03 to 0.25 µg/mL
Cc1c(F)c(N2CCNC(C)C2)cc2c1c(=O)c(C(=O)O)cn2C1CC1 (stereo not shown) :: 0.03 to 0.5 µg/mL

State its MIC: "CC1(C)S[C@@H]2[C@H](NC(=O)Cc3ccccc3)C(=O)N2[C@H]1C(=O)O"
2 to 16 µg/mL

* * *

Tested on: quinolone-resistant Haemophilus influenzae strains
Protocol details: Microdilution MIC determination in HTM for quinolone-resistant Haemophilus influenzae strains
Assay type: cell-based
Settings: strain 8; GyrA S84→L A117→E, ParC S84→R, GyrB None, ParE D420→N
Recorded endpoint: MICs

Examples with answers:
Cc1c(F)c(N2CCNC(C)C2)cc2c1c(=O)c(C(=O)O)cn2C1CC1 (centres unmarked) :: 1 µg/mL
N[C@@H]1[C@H]2CN(c3nc4c(cc3F)c(=O)c(C(=O)O)cn4-c3ccc(F)cc3F)C[C@@H]12 :: 4 µg/mL

Specify reported MICs for the compound shown: "C[C@H]1COc2c(N3CCN(C)CC3)c(F)cc3c(=O)c(C(=O)O)cn1c23"
2 µg/mL

Input "O=C(O)c1cn(C2CC2)c2cc(N3CCNCC3)c(F)cc2c1=O" , output reported MICs.
2 µg/mL

Query MICs for "C[C@@H]1CN(c2c(F)c(N)c3c(=O)c(C(=O)O)cn(C4CC4)c3c2F)C[C@H](C)N1"
1 µg/mL

* * *

System: pneumococcal strains
Protocol details: Microbroth dilution MICs of strains tested by time-kill and PAE
Format: cell-based
Settings: Streptococcus pneumoniae, strain 8 (I) penicillin intermediate; read-out: Microdilution MIC
// reported MIC for each item listed
Hi! Could you send only the number? It should be in µg/mL, unit omitted.

C[C@H]1COc2c(N3CCN(C)CC3)c(F)cc3c(=O)c(C(=O)O)cn1c23 :: 1

Please report the measured MIC for "CO/N=C(\C(=O)N[C@@H]1C(=O)N2C(C(=O)O)=C(COC(N)=O)CS[C@H]12)c1ccco1" tested on pneumococcal strains.
0.25

Would you please give the reported MIC of "C[C@@H]1CN(c2c(F)c(N)c3c(=O)c(C(=O)O)cn(C4CC4)c3c2F)C[C@H](C)N1" with pneumococcal strains?
0.25

* * *

Collected MIC values appear next to each entry.
Test system: pneumococci with ciprofloxacin MICs ≧8 μg/ml
Protocol details: Quinolone agar dilution MICs of 28 ciprofloxacin resistant pneumococcal strains, correlated with QRDR mutations
Format: cell-based, Streptococcus pneumoniae
Settings: Streptococcus pneumoniae, strain 10; ParC S79-F, ParE I460-V, GyrA S83-C, GyrB None
Output spec: scalar in µg/mL, unitless text.

Answered examples (3):
C[C@@H]1CN(c2c(F)c(N)c3c(=O)c(C(=O)O)cn(C4CC4)c3c2F)C[C@H](C)N1 :: 4
N[C@@H]1[C@H]2CN(c3nc4c(cc3F)c(=O)c(C(=O)O)cn4-c3ccc(F)cc3F)C[C@@H]12 :: 1
CO/N=C1\CN(c2nc3c(cc2F)c(=O)c(C(=O)O)cn3C2CC2)CC1CN (racemic) :: 0.125

// switching to the query molecule
Kindly indicate its recorded MIC. Item: Cc1c(F)c(N2CCNC(C)C2)cc2c1c(=O)c(C(=O)O)cn2C1CC1 (stereo not shown)
2

* * *

Tested on: pneumococcal strains
Protocol details: Microbroth dilution MICs of strains tested by time-kill and PAE
Assay type: cell-based
Settings: Streptococcus pneumoniae, strain 3 (S) penicillin susceptible, quinolone-resistant; read-out: Microdilution MIC
Recorded endpoint: MIC

Field: example entries. Status: answers known.
CC[C@H]1OC(=O)[C@H](C)[C@@H](O[C@H]2C[C@@](C)(OC)[C@@H](O)[C@H](C)O2)[C@H](C)[C@@H](O[C@@H]2O[C@H](C)C[C@H](N(C)C)[C@H]2O)[C@](C)(O)C[C@@H](C)CN(C)[C@H](C)[C@@H](O)[C@]1(C)O :: > 64 µg/mL
Cc1c(F)c(N2CCNC(C)C2)cc2c1c(=O)c(C(=O)O)cn2C1CC1 (centres unmarked) :: 16 µg/mL
N[C@@H]1[C@H]2CN(c3nc4c(cc3F)c(=O)c(C(=O)O)cn4-c3ccc(F)cc3F)C[C@@H]12 :: 8 µg/mL
CC1(C)S[C@@H]2[C@H](NC(=O)Cc3ccccc3)C(=O)N2[C@H]1C(=O)O :: 0.016 µg/mL

Please find the next molecule below.
Give me measured MIC, please, for this molecule: "CC[C@H]1OC(=O)[C@H](C)[C@@H](O[C@H]2C[C@@](C)(OC)[C@@H](O)[C@H](C)O2)[C@H](C)[C@@H](O[C@@H]2O[C@H](C)C[C@H](N(C)C)[C@H]2O)[C@](C)(OC)C[C@@H](C)C(=O)[C@H](C)[C@@H](O)[C@]1(C)O"
> 64 µg/mL
